Origin of values: patent US10125135B2

Target: ERα receptor in MCF-7 human ductal carcinoma breast cell line (Homo sapiens (Human))
Sequence (P03372 whole entry): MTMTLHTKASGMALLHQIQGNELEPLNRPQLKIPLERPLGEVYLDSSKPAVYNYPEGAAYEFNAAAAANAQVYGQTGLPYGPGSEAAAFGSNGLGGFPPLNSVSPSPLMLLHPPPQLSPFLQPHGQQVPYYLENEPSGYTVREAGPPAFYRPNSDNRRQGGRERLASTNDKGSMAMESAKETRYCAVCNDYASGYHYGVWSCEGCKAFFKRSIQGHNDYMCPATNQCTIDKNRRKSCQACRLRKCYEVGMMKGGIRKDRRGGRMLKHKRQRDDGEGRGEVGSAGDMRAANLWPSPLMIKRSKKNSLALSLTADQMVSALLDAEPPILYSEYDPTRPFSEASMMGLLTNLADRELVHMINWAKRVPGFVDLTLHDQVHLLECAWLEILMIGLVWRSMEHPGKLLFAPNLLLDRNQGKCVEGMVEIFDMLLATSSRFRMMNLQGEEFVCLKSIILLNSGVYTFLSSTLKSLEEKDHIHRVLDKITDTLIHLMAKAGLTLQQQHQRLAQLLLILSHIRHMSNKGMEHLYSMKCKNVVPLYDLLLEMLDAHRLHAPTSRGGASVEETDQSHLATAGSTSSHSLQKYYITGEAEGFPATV
Test: MCF-7 ER down regulation assay (immuno-fluorescence)
Assay type: cell-based
Settings: MCF-7 cells, 18-22 hours incubation; read-out: ER down regulation IC50 value
Experimental: MCF-7 ER Down Regulation Assay The ability of compounds to down-regulate Estrogen Receptor (ER) numbers was assessed in a cell based immuno-fluorescence assay using the MCF-7 human ductal carcinoma breast cell line. […] 20 μL of PBS was added to each well and the plates covered with a black plate seal and stored at 4° C. before being read. […]
Assign DC50 to each entry below.
Numbers only, in pM.

The cases that follow already have their DC50 on record.
C[C@@H]1Cc2c(ccc3[nH]ncc23)[C@@H](c2c(F)cc(NCCN3CC(CF)C3)cc2F)N1CC(C)(C)F = 280
COc1nc(OCCN2CC(CF)C2)ccc1[C@@H]1c2ccc3[nH]ncc3c2C[C@@H](C)N1CC1(F)CC1 = 140
COc1cc(OCCN2CC(CF)C2)ccc1[C@@H]1c2ccc3[nH]ncc3c2C[C@@H](C)N1CC(F)(F)F = 51

Let's switch to this compound now.
# input # lookup: DC50 of `COCC(F)(F)CN1[C@H](c2ccc(OCCN3CC(CF)C3)cn2)c2ccc3[nH]ncc3c2C[C@H]1C`
# output 510

###

Target: ERα receptor in MCF-7 human ductal carcinoma breast cell line (Homo sapiens (Human))
Test: MCF-7 ER down regulation assay (immuno-fluorescence)
Type: cell-based
Details: MCF-7 cells, 18-22 hours incubation; read-out: ER down regulation IC50 value
reported property: DC50 (pM)
Numbers only, in pM.

The cases that follow already have their DC50 on record.
C[C@@H]1Cc2c(ccc3[nH]ncc23)[C@@H](c2c(F)cc(OCCN3CC(CF)C3)cc2F)N1CC(C)(C)F = 97
CC(C)CN1[C@H](c2ccc(OCCN3CC(CF)C3)cn2)c2ccc3[nH]ncc3c2C[C@H]1C = 360
C[C@@H]1Cc2c(ccc3[nH]ncc23)[C@@H](c2ccc(OCCN3CC(CF)C3)cn2)N1CC1(F)CC1 = 390
C[C@@H]1Cc2c(ccc3[nH]ncc23)[C@@H](c2c(F)cc(OCCN3CC(C(F)F)C3)cc2F)N1CC(C)(C)F = 260

Required: DC50, one value per compound below.
1. C[C@@H]1Cc2c(ccc3[nH]ncc23)[C@@H](c2ccc(OCCN3CC(CF)C3)cc2C#N)N1CC1(F)CC1
2. COc1cc(OCCN2CC(CF)C2)ccc1[C@@H]1c2ccc3[nH]ncc3c2C[C@@H](C)N1CC(C)(C)F
3. COCC(C)(F)CN1[C@H](c2ccc(OCCN3CC(CF)C3)cc2OC)c2ccc3[nH]ncc3c2C[C@H]1C (single isomer, unassigned) [Example 16]
4. COc1cc(OCCN2CC(CF)C2)ccc1[C@@H]1c2ccc3[nH]ncc3c2C[C@@H](C)N1CC(C)C

# output
1. 170
2. 160
3. 440
4. 500

Required: DC50, one value per compound below.
1. C[C@@H]1Cc2c(ccc3[nH]ncc23)[C@@](C)(c2ccc(OCCN3CC(CF)C3)cc2)N1CC1(F)COC1
2. COc1cc(OCCN2CC(C)C2)ccc1[C@@H]1c2ccc3[nH]ncc3c2C[C@@H](C)N1CC(C)(C)F
3. C[C@@H]1Cc2c(ccc3[nH]ncc23)[C@@H](c2c(F)cc(OCCN3CC(CF)C3)cc2F)N1CC(F)CF (single isomer, unassigned) [Example 35]

# output
1: 76; 2: 240; 3: 260

Required: DC50, one value per compound below.
1. C[C@@H]1Cc2c(ccc3[nH]ncc23)[C@@](C)(c2ccc(OCCN3CC(CF)C3)cc2)N1CC1(F)CC1
2. CC1(C)Cc2c(ccc3[nH]ncc23)C(c2ccc(OCCN3CC(CF)C3)cn2)N1CC(F)F (centres unmarked)
3. CC(C)(F)CN1C(c2c(F)cc(OCCN3CC(CF)C3)cc2F)c2ccc3[nH]ncc3c2CC1(C)C (centres unmarked)

# output
87
3100
160
